// provenance: the supplement of paper PMC7877785

Listing of recorded self-splicing fitness (ln) by entry.
Assay: self-splicing fitness, log relative to wild type (ln ratio); higher = more splicing; Tetrahymena group I intron in knt gene, E. coli kanamycin selection, DiMSum; sequences stand for … in CUCUCU…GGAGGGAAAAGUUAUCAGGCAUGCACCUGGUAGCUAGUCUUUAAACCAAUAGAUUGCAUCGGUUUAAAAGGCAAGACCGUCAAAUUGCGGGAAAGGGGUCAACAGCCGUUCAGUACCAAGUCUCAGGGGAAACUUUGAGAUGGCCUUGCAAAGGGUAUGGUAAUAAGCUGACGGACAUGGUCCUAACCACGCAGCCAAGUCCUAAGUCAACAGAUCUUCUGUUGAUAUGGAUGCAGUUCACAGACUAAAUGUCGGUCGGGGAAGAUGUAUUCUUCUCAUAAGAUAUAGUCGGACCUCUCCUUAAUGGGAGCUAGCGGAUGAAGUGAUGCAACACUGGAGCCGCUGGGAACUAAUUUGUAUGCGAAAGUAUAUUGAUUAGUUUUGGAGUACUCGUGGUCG;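 further: selection with 25 µg/mL kanamycin versus none on LB agar overnight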
Conditions: 37 °C
Just the number.

Consider the sequence shown here: GAUAAGCAAUAUUACGCUGG What is its recorded self-splicing fitness (ln)? -2.04
